SYSTEM: soybean lipoxygenase (LOX-1) (Glycine max, UniProt P08170)
Construct: purchased Sigma Chemical, Co. (St Louis, MO, USA)
Sequence (P08170 1-839): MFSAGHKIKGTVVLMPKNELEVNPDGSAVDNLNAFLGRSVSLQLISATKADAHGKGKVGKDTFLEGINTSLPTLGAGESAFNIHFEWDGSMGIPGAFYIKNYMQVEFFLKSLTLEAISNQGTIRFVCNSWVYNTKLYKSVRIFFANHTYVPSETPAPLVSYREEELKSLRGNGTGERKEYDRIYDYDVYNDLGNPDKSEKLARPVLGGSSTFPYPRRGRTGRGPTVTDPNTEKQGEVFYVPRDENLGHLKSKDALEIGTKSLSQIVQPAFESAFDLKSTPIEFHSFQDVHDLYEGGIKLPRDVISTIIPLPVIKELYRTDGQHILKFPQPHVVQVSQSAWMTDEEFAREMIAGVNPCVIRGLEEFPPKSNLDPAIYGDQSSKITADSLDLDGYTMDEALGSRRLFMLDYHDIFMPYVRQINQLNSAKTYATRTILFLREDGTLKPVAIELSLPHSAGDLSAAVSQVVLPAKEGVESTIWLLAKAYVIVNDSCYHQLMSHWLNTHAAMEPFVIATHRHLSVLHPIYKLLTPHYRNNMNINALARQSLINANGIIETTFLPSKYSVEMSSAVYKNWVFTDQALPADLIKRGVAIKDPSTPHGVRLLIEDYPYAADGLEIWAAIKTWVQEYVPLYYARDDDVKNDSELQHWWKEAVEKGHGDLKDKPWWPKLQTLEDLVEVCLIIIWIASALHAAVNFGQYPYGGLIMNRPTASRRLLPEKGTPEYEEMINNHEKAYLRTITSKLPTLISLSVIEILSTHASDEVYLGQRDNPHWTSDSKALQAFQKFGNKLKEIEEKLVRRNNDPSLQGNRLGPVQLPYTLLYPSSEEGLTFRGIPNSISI
TEST_SUMMARY: Soybean lipoxygenase inhibition study
Assay type: biochemical
EXPERIMENTAL_PARAMETERS: % inhibition at 100 µM

- COMPOUND: "COC(=O)CC[C@H](NC(=O)/C=C/c1ccc(C#N)cc1)C(=O)OC [Compound 26c]"
  SYSTEM: "soybean lipoxygenase (LOX-1) (Glycine max, UniProt P08170)"
  LOX inhibition (%): 10
- COMPOUND: "COC(=O)CCCNC(=O)/C=C/c1ccc(O)cc1 [Compound 25b]"
  SYSTEM: "soybean lipoxygenase (LOX-1) (Glycine max, UniProt P08170)"
  LOX inhibition (%): 10
- COMPOUND: "CCOC(=O)CNC(=O)/C=C/c1ccc2c(c1)OCO2 [Compound 20a]"
  SYSTEM: "soybean lipoxygenase (LOX-1) (Glycine max, UniProt P08170)"
  LOX inhibition (%): 6
- COMPOUND: "COC(=O)CCCNC(=O)/C=C/c1cccs1 [Compound 21b]"
  SYSTEM: "soybean lipoxygenase (LOX-1) (Glycine max, UniProt P08170)"
  LOX inhibition (%): 0
- COMPOUND: "CCOC(=O)CNC(=O)/C=C/c1cccs1 [Compound 21a]"
  SYSTEM: "soybean lipoxygenase (LOX-1) (Glycine max, UniProt P08170)"
  LOX inhibition (%): 20
- COMPOUND: "COC(=O)CC[C@H](NC(=O)/C=C/c1ccccc1)C(=O)OC [Compound 22c]"
  SYSTEM: "soybean lipoxygenase (LOX-1) (Glycine max, UniProt P08170)"
  LOX inhibition (%): 10
- COMPOUND: "CCOC(=O)CNC(=O)/C=C/c1cccc2ccccc12 [Compound 17a]"
  SYSTEM: "soybean lipoxygenase (LOX-1) (Glycine max, UniProt P08170)"
  LOX inhibition (%): 23
